Please respond with reported Kd for every item in the list.
target: T1, cynomolgus monkey serum albumin (cynomolgus monkey, UniProt A2V9Z4 25-608); experiment: SPR (Biacore 8K), albumin immobilised, 25 C, 1:1 kinetics
T1 construct: bought protein, amine-coupled to a CM5 chip; also called Cyno SA
Number in nM, nothing else.

## Input Consider the binder INS Analog 27 (other, single-chain insulin B-L2-A-L1-VHH fusion; also called Ex. 27) FVSQHLCGSHLVEALRLVCGERGFFYTPKTGGGGGGGIVEQCCHSICSLYQLENYCGGGGGQGGGGQGGGGQGGGGQGGGGQEVQLLESGGGLVQPGGSLRLSCAASGRYIDETAVAWFRQAPGKEREFVAGIGGGVDITYYADSVKGRFTISRDNSKNTLYLQMNSLRPEDTAVYYCAARPGRPLITSKVADLYPYWGQGTLVTVSSPP and give its measured Kd.
## Output 4.7

## Input Dear colleague, I am looking for the recorded Kd of the following binder: INS Analog 26 (other, single-chain insulin B-L2-A-L1-VHH fusion; also called Ex. 26) FVSQHLCGSHLVEALRLVCGERGFFYTPKTGGGGGGGIVEQCCTSICSLYQLENYCGPGPQPGPQPGPQPGPQPGPQPGPQPGPQPGPQEVQLLESGGGLVQPGGSLRLSCAASGRYIDETAVAWFRQAPGKEREFVAGIGGGVDITYYADSVKGRFTISRDNSKNTLYLQMNSLRPEDTAVYYCAARPGRPLITSKVADLYPYWGQGTLVTVSSPP
## Output 3.9

## Input Fill blank: measured Kd of the binder INS Analog 25 (other, single-chain insulin B-L2-A-L1-VHH fusion; also called Ex. 25) FVSQHLCGSHLVEALRLVCGERGFFYTPKTGGGGGGGIVEQCCTSICSLYQLENYCGGGGGQGGGGQGGGGQGGGGQGGGGQEVQLLESGGGLVQPGGSLRLSCAASGRYIDETAVAWFRQAPGKEREFVAGIGGGVDITYYADSVKGRFTISRDNSKNTLYLQMNSLRPEDTAVYYCAARPGRPLITSKVADLYPYWGQGTLVTVSSPP is ____.
## Output 3.5
